biological target: purified bovine transducin (alpha subunit is the ADP-ribose acceptor), P04695
Assignment: determine reported ADP-ribosyltransferase activity (cpm) for the given proteins.
Give bare numbers, in cpm.

Example entries begin here.
S1 mutant 8-1 (Tyr8->Leu, Arg9->Glu in S1/6A) (protein) MVPPATVLEYDSRPPEDVFQNGFTAWGNNDNVLDHLTGRSCQVGSSNSAFVSTSSSRRYTEVYLEHRMQEAVEAERAGRGTGHFIGYIYEVRADNNFYGAASSYFEYVDTYGDNAGRILAGALATYQSEYLAHRRIPPENIRRVTRVYHNGITGETTTTEYSNARYVSQHTRANPNPYTSRRSVASIVGTLVRMAPVIGACMARQAESSEAMAAWSERAGEAMVLVYYESIAYS :: 926
S1/6A (recombinant pertussis toxin S1 analog, parent construction 6A) (protein) MVPPATVYRYDSRPPEDVFQNGFTAWGNNDNVLDHLTGRSCQVGSSNSAFVSTSSSRRYTEVYLEHRMQEAVEAERAGRGTGHFIGYIYEVRADNNFYGAASSYFEYVDTYGDNAGRILAGALATYQSEYLAHRRIPPENIRRVTRVYHNGITGETTTTEYSNARYVSQHTRANPNPYTSRRSVASIVGTLVRMAPVIGACMARQAESSEAMAAWSERAGEAMVLVYYESIAYS :: 23400
S1 mutant 7-2 (Arg9->Asn, Ser12->Gly in S1/6A) (protein) MVPPATVYNYDGRPPEDVFQNGFTAWGNNDNVLDHLTGRSCQVGSSNSAFVSTSSSRRYTEVYLEHRMQEAVEAERAGRGTGHFIGYIYEVRADNNFYGAASSYFEYVDTYGDNAGRILAGALATYQSEYLAHRRIPPENIRRVTRVYHNGITGETTTTEYSNARYVSQHTRANPNPYTSRRSVASIVGTLVRMAPVIGACMARQAESSEAMAAWSERAGEAMVLVYYESIAYS :: 753

For the next question, use this protein.
Incoming: Return ADP-ribosyltransferase activity (cpm) (reported value) for this protein: S1 mutant 1-1 (Arg13->Lys in S1/6A) (protein) MVPPATVYRYDSKPPEDVFQNGFTAWGNNDNVLDHLTGRSCQVGSSNSAFVSTSSSRRYTEVYLEHRMQEAVEAERAGRGTGHFIGYIYEVRADNNFYGAASSYFEYVDTYGDNAGRILAGALATYQSEYLAHRRIPPENIRRVTRVYHNGITGETTTTEYSNARYVSQHTRANPNPYTSRRSVASIVGTLVRMAPVIGACMARQAESSEAMAAWSERAGEAMVLVYYESIAYS
Outgoing: 7390
